The reported measurements were obtained from the emibetuzumab library of Makowski et al. (2022).

B1: VH:VL chains; a variant is named by its letters at X, in order (parent)
chain 1: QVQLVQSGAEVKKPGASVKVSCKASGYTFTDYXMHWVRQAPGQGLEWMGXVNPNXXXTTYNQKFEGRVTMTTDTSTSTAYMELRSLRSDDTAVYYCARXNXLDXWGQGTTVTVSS
chain 2: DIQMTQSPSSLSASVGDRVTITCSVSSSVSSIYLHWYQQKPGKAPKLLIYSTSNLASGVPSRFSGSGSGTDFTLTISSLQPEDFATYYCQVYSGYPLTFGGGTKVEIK

- Variants of: B1
- experimentalDetails: yeast display scFab, FACS + sequencing
- runParameters: with MET
This is one part of the list. The true hit rate is not given.
observable: antigen binding call

variantName	antigen binding call
AKTRDFVA	no binding
VGGTSDGV	no binding
YRKEAAWV	binds
YRARSAGF	binds
YRGRGVGY	binds

I am curious: what antigen binding call value has been reported for YTRGADLA ? no binding

Which antigen binding call is listed for SREAADGV ? no binding

Can you look up the measured antigen binding call of VKGRGVVD for me? binds

Which antigen binding call is reported for this variant? YRGAGSLD binds

# query: antigen binding call of entry VTTKSDGY no binding

Which antigen binding call is listed for DAKEGDLV ? no binding

What value of antigen binding call has been reported for the following variant? YATTSFSF no binding

Can you share its antigen binding call? I mean this variant: YKGRGASV binds

State the recorded antigen binding call for this entry: FAGRGSSD no binding

Could you tell me which antigen binding call is on file for YRKGGAWV ? binds

Recorded antigen binding call of DRGRDDVF , please. no binding

Need antigen binding call, item ARGRGSSS binds

Requested field: antigen binding call. Item: YRGRDVGY no binding

State the recorded antigen binding call for this entry: YRRRGVGY binds

Quick check: antigen binding call of VRKGSSGD ? binds

# lookup: antigen binding call of ARKGSSGD no binding

// antigen binding call lookup, key: FRGRDYGD no binding

Quick one: antigen binding call of FRGGSSGS ? binds

For DETKGDWD , what is its reported antigen binding call? no binding
